# Test system: PC-3 human prostate cancer cell strain
# PROTOCOL TEXT: Antitumor cell proliferation in vitro, CCK-8 detection kit, PC-3
# Type: cell-based
# EXPERIMENTAL PARAMETERS: PC-3 cells, 72 hours, 1st and 2nd test where printed
MEASURED METRIC: pIC50
Interpret pIC50 as the negative base-10 log of the concentration measured in mol/L.

Ask: Could you share which pIC50 value was measured for `CC(C)Oc1nc(Nc2ccc3nccc(-c4ccccc4)c3c2)nc2[nH]cnc12` ?
Result: 6.95

* * *

# ASSAY SYSTEM: PI3Kδ (Homo sapiens, UniProt O00329)
# Construct: purchased Millipore 14-604
# Sequence (O00329 whole entry): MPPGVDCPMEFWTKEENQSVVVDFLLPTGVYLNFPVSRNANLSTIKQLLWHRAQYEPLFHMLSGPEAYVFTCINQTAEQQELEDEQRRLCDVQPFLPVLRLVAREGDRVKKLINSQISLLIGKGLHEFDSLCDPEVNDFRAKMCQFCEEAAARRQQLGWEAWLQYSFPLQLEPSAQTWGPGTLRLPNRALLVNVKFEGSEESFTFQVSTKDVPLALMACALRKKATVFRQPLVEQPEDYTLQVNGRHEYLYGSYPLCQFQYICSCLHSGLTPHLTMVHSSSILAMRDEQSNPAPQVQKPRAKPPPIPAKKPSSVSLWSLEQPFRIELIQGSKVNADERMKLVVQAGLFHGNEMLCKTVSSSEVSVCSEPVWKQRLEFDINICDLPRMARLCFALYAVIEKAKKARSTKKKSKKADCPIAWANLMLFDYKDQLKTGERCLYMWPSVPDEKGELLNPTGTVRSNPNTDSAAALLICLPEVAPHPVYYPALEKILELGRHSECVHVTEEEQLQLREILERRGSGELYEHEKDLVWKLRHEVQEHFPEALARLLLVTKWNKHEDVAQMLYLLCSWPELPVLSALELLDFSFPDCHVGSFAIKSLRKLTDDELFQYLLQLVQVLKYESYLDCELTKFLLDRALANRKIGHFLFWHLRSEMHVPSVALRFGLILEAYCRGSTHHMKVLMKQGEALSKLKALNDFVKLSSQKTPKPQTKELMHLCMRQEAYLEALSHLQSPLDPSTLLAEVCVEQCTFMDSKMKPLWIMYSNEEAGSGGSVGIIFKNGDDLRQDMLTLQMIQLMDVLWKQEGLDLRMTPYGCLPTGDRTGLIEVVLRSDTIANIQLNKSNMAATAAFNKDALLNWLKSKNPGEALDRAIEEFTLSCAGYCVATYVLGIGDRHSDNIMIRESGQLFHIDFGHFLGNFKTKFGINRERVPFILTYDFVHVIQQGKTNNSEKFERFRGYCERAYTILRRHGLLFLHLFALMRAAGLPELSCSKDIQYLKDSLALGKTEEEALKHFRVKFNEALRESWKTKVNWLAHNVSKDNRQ
# Sequence (P27986 whole entry partner): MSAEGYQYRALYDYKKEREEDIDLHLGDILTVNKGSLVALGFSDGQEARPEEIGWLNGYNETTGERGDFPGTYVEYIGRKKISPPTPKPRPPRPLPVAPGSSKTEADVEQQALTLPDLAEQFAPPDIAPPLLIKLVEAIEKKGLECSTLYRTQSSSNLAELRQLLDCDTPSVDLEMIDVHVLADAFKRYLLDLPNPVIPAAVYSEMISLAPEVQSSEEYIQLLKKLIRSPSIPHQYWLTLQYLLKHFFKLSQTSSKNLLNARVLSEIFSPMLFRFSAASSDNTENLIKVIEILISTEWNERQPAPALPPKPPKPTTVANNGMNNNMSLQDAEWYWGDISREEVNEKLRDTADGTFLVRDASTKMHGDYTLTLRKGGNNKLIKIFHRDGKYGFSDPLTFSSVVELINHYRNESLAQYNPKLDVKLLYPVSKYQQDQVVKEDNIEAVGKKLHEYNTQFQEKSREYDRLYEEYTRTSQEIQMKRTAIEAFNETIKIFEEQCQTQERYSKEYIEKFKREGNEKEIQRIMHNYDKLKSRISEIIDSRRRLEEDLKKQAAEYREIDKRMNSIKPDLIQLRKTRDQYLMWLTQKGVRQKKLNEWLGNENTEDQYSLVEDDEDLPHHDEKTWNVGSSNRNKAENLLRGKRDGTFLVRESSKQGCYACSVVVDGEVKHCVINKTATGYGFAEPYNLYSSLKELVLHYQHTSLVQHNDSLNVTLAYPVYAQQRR
# PROTOCOL TEXT: Inhibitory activity to PI3K δ, PI 3-Kinase (human) HTRF Assay kit
# Format: biochemical
# EXPERIMENTAL PARAMETERS: 1 μM (Table 7); read-out: Inhibition rate % to PI3Kδ
Mark yes for reported inhibition at 1 µM of 20% or greater; mark no for anything smaller.

Ask: # check: inhibition at 1 µM of `OCCNc1nc(Nc2ccc3nccc(-c4ccccc4)c3c2)nc2[nH]cnc12` is greater than or equal to 20%
Result: yes

Ask: # check: inhibition at 1 µM of `c1ccc(-c2ccnc3ccc(Nc4nc(OC5CCC5)c5nc[nH]c5n4)cc23)cc1` is greater than or equal to 20%
Result: yes

Ask: # check: inhibition at 1 µM of `c1ccc(-c2ccnc3ccc(Nc4nc(NCC5CCCC5)c5nc[nH]c5n4)cc23)cc1` is greater than or equal to 20%
Result: no

Ask: # check: inhibition at 1 µM of `NCCNc1nc(Nc2ccc3nccc(-c4ccccc4)c3c2)nc2[nH]cnc12` is greater than or equal to 20%
Result: yes

Ask: # check: inhibition at 1 µM of `COc1cccc(-c2ccnc3ccc(Nc4nc(NC5CCC5)c5nc[nH]c5n4)cc23)c1` is greater than or equal to 20%
Result: yes

Ask: # check: inhibition at 1 µM of `COC(=O)C1(Nc2nc(Nc3ccc4nccc(-c5ccccc5)c4c3)nc3[nH]cnc23)CC1` is greater than or equal to 20%
Result: no

Ask: # check: inhibition at 1 µM of `CC(C)Oc1nc(Nc2ccc3nccc(N4CCNCC4)c3c2)nc2[nH]cnc12` is greater than or equal to 20%
Result: no

Ask: # check: inhibition at 1 µM of `c1cc(N2CCNCC2)c2cc(Nc3nc(NC4CC4)c4nc[nH]c4n3)ccc2n1` is greater than or equal to 20%
Result: yes

* * *

# ASSAY SYSTEM: PDGFR β enzyme (Homo sapiens)
# Construct: purchased Invitrogen P3082
# Sequence (P09619 33-1106): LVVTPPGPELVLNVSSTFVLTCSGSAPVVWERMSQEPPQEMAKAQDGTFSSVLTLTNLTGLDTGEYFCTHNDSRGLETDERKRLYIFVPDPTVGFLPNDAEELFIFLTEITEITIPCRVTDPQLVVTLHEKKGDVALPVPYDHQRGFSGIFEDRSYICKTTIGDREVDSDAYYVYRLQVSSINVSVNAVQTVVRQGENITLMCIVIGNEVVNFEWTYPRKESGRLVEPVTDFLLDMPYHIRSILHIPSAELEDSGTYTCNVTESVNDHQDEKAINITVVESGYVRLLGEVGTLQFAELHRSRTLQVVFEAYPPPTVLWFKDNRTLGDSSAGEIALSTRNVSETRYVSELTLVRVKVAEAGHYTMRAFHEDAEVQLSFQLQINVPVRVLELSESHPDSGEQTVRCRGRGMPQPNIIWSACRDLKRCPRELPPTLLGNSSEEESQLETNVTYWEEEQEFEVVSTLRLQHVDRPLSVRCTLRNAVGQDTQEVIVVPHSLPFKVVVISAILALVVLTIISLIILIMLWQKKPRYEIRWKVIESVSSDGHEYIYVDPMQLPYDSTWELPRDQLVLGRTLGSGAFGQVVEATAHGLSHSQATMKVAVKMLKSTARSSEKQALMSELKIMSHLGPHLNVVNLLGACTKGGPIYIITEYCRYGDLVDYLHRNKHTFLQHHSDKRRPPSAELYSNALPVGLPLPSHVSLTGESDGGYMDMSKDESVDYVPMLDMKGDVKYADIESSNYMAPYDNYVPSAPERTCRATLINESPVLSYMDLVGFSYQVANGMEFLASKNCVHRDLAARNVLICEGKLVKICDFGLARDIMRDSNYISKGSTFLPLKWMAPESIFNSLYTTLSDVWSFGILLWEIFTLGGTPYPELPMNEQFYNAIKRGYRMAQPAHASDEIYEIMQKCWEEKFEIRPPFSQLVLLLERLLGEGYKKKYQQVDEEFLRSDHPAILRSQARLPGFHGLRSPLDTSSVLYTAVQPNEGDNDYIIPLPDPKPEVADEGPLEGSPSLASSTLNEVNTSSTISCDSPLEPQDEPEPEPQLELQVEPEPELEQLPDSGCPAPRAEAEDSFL
# PROTOCOL TEXT: Inhibitory activity to PDGFR β enzyme, HTRF kinEASE TK kit
# Format: biochemical
# EXPERIMENTAL PARAMETERS: 1 μM; read-out: Inhibition rate % (PDGFR β)
# Method: HTRF kinEASE TK (Cat.62TK0PEC, Cisbio) PDGFR β enzyme (Cat.P3082, Invitrogen) 1 mL 1×Kinase Buffer includes 200 μL 5×Enzyme buffer, 5 μL 1M MgCl2, 1 μL 1M DTT, 1 μL 1M MnCl2, 20 μL 2500 nM SEB, 773 μL ddH2O. TK-Substrate and ATP are diluted to 2.5 times of reaction concentration with 1×PDGFR β Kinase Buffer. 5×PDGFR β enzyme working solution is prepared with 1×PDGFR β kinase buffer. 4×Sa-XL665 working solution is prepared with Detection Buffer. […]
I'd appreciate it if you could supply inhibition at 1 µM values for the items below.
Write the answer as a number in %, unit excluded.

Ask: Could you share which inhibition at 1 µM value was measured for `Fc1ccc(-c2ccnc3ccc(Nc4nc(NC5CCC5)c5nc[nH]c5n4)cc23)cc1` ?
Result: 7.25

Ask: Could you share which inhibition at 1 µM value was measured for `c1ccc(-c2ccnc3ccc(Nc4nc(NC5CCC5)c5nc[nH]c5n4)cc23)cc1` ?
Result: 13.2

Ask: Could you share which inhibition at 1 µM value was measured for `COCCCNc1nc(Nc2ccc3nccc(-c4ccccc4)c3c2)nc2[nH]cnc12` ?
Result: 22.2

Ask: Could you share which inhibition at 1 µM value was measured for `c1ccc(-c2ccnc3ccc(Nc4nc(OC5CCC5)c5nc[nH]c5n4)cc23)cc1` ?
Result: 38.1

* * *

# ASSAY SYSTEM: PI3K α (Homo sapiens)
# Construct: purchased Millipore 14-602
# Sequence (P42336 whole entry): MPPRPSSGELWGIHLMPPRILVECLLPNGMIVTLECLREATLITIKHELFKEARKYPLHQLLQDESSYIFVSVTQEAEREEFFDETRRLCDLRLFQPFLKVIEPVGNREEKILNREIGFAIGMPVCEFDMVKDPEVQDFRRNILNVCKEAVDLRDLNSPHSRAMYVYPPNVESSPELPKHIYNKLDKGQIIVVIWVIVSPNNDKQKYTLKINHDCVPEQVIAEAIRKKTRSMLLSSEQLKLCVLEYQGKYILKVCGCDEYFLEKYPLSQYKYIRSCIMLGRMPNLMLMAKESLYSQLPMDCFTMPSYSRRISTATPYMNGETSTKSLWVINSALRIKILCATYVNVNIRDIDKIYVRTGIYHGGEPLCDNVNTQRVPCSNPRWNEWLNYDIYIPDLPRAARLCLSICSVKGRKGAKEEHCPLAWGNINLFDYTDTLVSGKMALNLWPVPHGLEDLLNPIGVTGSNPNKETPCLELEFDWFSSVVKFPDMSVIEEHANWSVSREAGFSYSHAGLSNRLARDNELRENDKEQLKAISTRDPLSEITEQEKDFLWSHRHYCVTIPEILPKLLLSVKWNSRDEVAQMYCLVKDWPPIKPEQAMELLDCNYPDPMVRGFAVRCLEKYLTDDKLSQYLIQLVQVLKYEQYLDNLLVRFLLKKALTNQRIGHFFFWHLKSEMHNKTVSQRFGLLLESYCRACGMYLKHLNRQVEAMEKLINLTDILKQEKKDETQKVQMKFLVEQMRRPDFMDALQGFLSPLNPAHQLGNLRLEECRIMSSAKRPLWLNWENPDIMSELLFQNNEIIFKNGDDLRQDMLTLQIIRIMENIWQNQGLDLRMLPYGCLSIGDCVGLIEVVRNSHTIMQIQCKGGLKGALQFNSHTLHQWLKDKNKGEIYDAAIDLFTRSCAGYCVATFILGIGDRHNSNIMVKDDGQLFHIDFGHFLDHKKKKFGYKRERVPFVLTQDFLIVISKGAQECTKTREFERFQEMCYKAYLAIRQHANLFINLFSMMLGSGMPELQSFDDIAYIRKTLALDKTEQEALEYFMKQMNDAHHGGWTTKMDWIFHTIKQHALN
# Sequence (P27986 whole entry partner): as the sequence (P27986 whole entry partner) above
# PROTOCOL TEXT: Inhibitory activity to PI3K α, PI 3-Kinase (human) HTRF Assay kit
# Format: biochemical
# EXPERIMENTAL PARAMETERS: 1 μM; read-out: % Inhibition Rate to PI3K α
Mark T for reported inhibition at 1 µM of 30% or greater; mark F for anything smaller.

Ask: # check: inhibition at 1 µM of FC(F)(F)Cn1cnc2c(NC3CC3)nc(Nc3ccc4nccc(-c5ccccc5)c4c3)nc21 [MED1007-65] is greater than or equal to 30%
Result: F

Ask: # check: inhibition at 1 µM of Fc1ccc(-c2ccnc3ccc(Nc4nc(NC5CCC5)c5nc[nH]c5n4)cc23)cc1 [MED1007-72] is greater than or equal to 30%
Result: F

Ask: # check: inhibition at 1 µM of CSc1ccccc1-c1ccnc2ccc(Nc3nc(NC4CC4)c4nc[nH]c4n3)cc12 [MED1007-87] is greater than or equal to 30%
Result: F

Ask: # check: inhibition at 1 µM of CSc1cccc(-c2ccnc3ccc(Nc4nc(NC5CC5)c5nc[nH]c5n4)cc23)c1 [MED1007-88] is greater than or equal to 30%
Result: T

Ask: # check: inhibition at 1 µM of CCOc1cccc(-c2ccnc3ccc(Nc4nc(NC5CC5)c5nc[nH]c5n4)cc23)c1 [MED1007-83] is greater than or equal to 30%
Result: T

Ask: # check: inhibition at 1 µM of COC[C@H]1OC(=O)c2coc3c2[C@@]1(C)C1=C(C3=O)[C@@H]2CCC(=O)[C@@]2(C)C[C@H]1OC(C)=O [Wortmannin, reference compound] is greater than or equal to 30%
Result: T

Ask: # check: inhibition at 1 µM of COCCCNc1nc(Nc2ccc3nccc(-c4ccccc4)c3c2)nc2[nH]cnc12 [MED1007-67] is greater than or equal to 30%
Result: F

* * *

# ASSAY SYSTEM: PI3 K γ (Homo sapiens)
# Construct: purchased Biology, Medicilon
# Sequence (P48736 whole entry): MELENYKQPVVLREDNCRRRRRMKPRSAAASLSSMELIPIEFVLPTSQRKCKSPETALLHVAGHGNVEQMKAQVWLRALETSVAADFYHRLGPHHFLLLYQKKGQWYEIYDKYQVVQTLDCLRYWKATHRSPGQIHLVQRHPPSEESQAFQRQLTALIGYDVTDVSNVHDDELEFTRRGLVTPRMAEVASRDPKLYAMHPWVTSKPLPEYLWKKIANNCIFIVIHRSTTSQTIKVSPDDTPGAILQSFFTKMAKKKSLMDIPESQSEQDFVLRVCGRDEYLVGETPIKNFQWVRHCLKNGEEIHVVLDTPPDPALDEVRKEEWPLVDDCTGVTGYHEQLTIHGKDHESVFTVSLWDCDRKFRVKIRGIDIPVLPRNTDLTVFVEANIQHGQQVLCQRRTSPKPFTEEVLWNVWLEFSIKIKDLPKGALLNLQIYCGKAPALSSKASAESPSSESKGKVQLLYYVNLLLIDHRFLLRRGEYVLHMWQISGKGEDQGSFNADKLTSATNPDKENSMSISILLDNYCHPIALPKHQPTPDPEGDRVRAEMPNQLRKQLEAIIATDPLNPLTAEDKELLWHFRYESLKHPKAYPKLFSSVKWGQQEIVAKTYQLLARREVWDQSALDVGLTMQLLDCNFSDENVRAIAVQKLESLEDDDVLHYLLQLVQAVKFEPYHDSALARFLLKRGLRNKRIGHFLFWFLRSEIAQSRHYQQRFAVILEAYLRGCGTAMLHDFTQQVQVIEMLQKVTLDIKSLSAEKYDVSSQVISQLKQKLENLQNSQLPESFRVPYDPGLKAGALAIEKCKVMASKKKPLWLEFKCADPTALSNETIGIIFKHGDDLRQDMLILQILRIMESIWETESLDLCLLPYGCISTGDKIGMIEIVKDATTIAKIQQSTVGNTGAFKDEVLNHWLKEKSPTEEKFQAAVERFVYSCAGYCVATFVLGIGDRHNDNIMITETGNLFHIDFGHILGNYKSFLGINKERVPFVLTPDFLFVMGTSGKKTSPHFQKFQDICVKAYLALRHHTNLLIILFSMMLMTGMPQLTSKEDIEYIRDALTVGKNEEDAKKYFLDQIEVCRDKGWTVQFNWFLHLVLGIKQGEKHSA
# PROTOCOL TEXT: Inhibitory activity to PI3K γ, PI 3-Kinase (human) HTRF Assay kit
# Assay type: biochemical
# EXPERIMENTAL PARAMETERS: 1 μM; read-out: Inhibition rate % to PI3 K γ
I'd appreciate it if you could supply inhibition at 1 µM values for the items below.
Write the answer as a number in %, unit excluded.

Ask: Could you share which inhibition at 1 µM value was measured for Fc1cccc(-c2ccnc3ccc(Nc4nc(NC5CC5)c5nc[nH]c5n4)cc23)c1 [MED1007-64] ?
Result: -4.23

Ask: Could you share which inhibition at 1 µM value was measured for NCCNc1nc(Nc2ccc3nccc(-c4ccccc4)c3c2)nc2[nH]cnc12 [MED1007-70] ?
Result: 5.26

Ask: Could you share which inhibition at 1 µM value was measured for CCOc1cccc(-c2ccnc3ccc(Nc4nc(NC5CC5)c5nc[nH]c5n4)cc23)c1 [MED1007-83] ?
Result: 5.93

Ask: Could you share which inhibition at 1 µM value was measured for c1cnc2ccc(Nc3nc(NC4CC4)c4nc[nH]c4n3)cc2c1 [XC-302, reference compound] ?
Result: 18.3

Ask: Could you share which inhibition at 1 µM value was measured for COC(=O)c1cccc(-c2ccnc3ccc(Nc4nc(NC5CC5)c5nc[nH]c5n4)cc23)c1 [MED1007-60] ?
Result: -2.59

Ask: Could you share which inhibition at 1 µM value was measured for c1ccc(-c2ccnc3ccc(Nc4nc(OC5CCC5)c5nc[nH]c5n4)cc23)cc1 [MED1007-98] ?
Result: 32.8

Ask: Could you share which inhibition at 1 µM value was measured for c1ccc(-c2ccnc3ccc(Nc4nc(NC5CCC5)c5nc[nH]c5n4)cc23)cc1 [MED1007-75] ?
Result: 6.93

Ask: Could you share which inhibition at 1 µM value was measured for CSc1ccccc1-c1ccnc2ccc(Nc3nc(NC4CC4)c4nc[nH]c4n3)cc12 [MED1007-87] ?
Result: -3.76

* * *

# ASSAY SYSTEM: PI3Kδ (Homo sapiens)
# Construct: purchased Millipore 14-604
# PROTOCOL TEXT: Inhibitory activity to PI3K δ, PI 3-Kinase (human) HTRF Assay kit
# Type: biochemical
# EXPERIMENTAL PARAMETERS: 10 μM (Table 7); read-out: Inhibition rate % to PI3Kδ
Mark 1 for reported inhibition at 10 µM of 70% or greater; mark -1 for anything smaller.

Ask: # check: inhibition at 10 µM of c1cc(N2CCOCC2)c2cc(Nc3nc(NC4CC4)c4nc[nH]c4n3)ccc2n1 [MED1007-32] is greater than or equal to 70%
Result: -1

Ask: # check: inhibition at 10 µM of OCCCNc1nc(Nc2ccc3nccc(-c4ccccc4)c3c2)nc2[nH]cnc12 [MED1007-73] is greater than or equal to 70%
Result: -1

Ask: # check: inhibition at 10 µM of c1ccc(-c2ccnc3ccc(Nc4nc(NC5CCC5)c5nc[nH]c5n4)cc23)cc1 [MED1007-75] is greater than or equal to 70%
Result: -1

Ask: # check: inhibition at 10 µM of c1cnc2ccc(Nc3nc(OC4CCCC4)c4nc[nH]c4n3)cc2c1 [MED1007-35] is greater than or equal to 70%
Result: 1

Ask: # check: inhibition at 10 µM of c1ccc(-c2ccnc3ccc(Nc4nc(NC5CC5)c5nc[nH]c5n4)cc23)cc1 [MED1007-91, dihydrate di-methanesulfonate] is greater than or equal to 70%
Result: 1

Ask: # check: inhibition at 10 µM of COCCNc1nc(Nc2ccc3nccc(-c4ccccc4)c3c2)nc2[nH]cnc12 [MED1007-68] is greater than or equal to 70%
Result: -1

Ask: # check: inhibition at 10 µM of COc1cccc(-c2ccnc3ccc(Nc4nc(NC5CC5)c5nc[nH]c5n4)cc23)c1 [MED1007-61] is greater than or equal to 70%
Result: 1

Ask: # check: inhibition at 10 µM of COC(=O)C1(Nc2nc(Nc3ccc4nccc(-c5ccccc5)c4c3)nc3[nH]cnc23)CC1 [MED1007-15] is greater than or equal to 70%
Result: -1

Ask: # check: inhibition at 10 µM of c1cc(N2CCNCC2)c2cc(Nc3nc(NC4CC4)c4nc[nH]c4n3)ccc2n1 [MED1007-33] is greater than or equal to 70%
Result: -1

Ask: # check: inhibition at 10 µM of FC(F)(F)Cn1cnc2c(NC3CC3)nc(Nc3ccc4nccc(-c5ccccc5)c4c3)nc21 [MED1007-65] is greater than or equal to 70%
Result: -1

Ask: # check: inhibition at 10 µM of CC(C)Oc1nc(Nc2ccc3nccc(-c4ccccc4)c3c2)nc2[nH]cnc12 [MED1007-51] is greater than or equal to 70%
Result: 1

Ask: # check: inhibition at 10 µM of COc1cccc(-c2ccnc3ccc(Nc4nc(NC5CCC5)c5nc[nH]c5n4)cc23)c1 [MED1007-71] is greater than or equal to 70%
Result: -1

Ask: # check: inhibition at 10 µM of COc1ccc(-c2ccnc3ccc(Nc4nc(NC5CC5)c5nc[nH]c5n4)cc23)cc1 [MED1007-63] is greater than or equal to 70%
Result: 1

Attribution: patent US9718823B2
